From: the nanobody polyreactivity screen of Harvey et al. (2022)

Assay remarks: yeast display, Sf9 membrane polyspecificity reagent, FACS + sequencing; frameworks hold sequencing errors
Reported property: polyreactivity (PSR sort gate)

QVQLVESGGGLVQAGGSLRLSCAASGIIFDYYDMGWYRQAPGKERELVAAISAGGGSTYYADSVKGRFTISRDNAKNTVYLQMNSLKPEDTAVYYCAALYWRSTVGAYSTYEYDYWGQGTQVTVSS: high polyreactivity
QVQLVESVGVLVQAGGSLHLSCAASGSTFRYNAIGWYRQAPGKEREVVAAISKRGGSTYYADSVKGRFTISRDNAKNTVYLQMNSLKPEDTAVYYCAASYPSWSTRGESDYWGQGTQVTVSS: high polyreactivity

###

Assay remarks: yeast display, Sf9 membrane polyspecificity reagent, FACS + sequencing; frameworks hold sequencing errors
Reported property: polyreactivity (PSR sort gate)

In the examples that follow, each entry is paired with its recorded polyreactivity (PSR sort gate).
QVQLLESGGGLDQAGGTLRLSCAASGGTINLYAMAWYRPAPGKERELVAAISWSGGTTYYADSVKGRFTLSRDNAKNTVYLQIISLKPVDTAVYYCAAYFRTSLGTYDYWGQGTKVTVSS: high polyreactivity
QVQLVETGGGLVQAGGSLRLSCAASGRIFDIYAMGWYRQAPGKERELVAAIDESGGSTYYADSVKGRFTISRDNAKNTVYLQMNSLKPEDTAVYYCATDDTWTISYGWYWFTYEYWGQGTQVTVSS: low polyreactivity
QVPLVESGGGLVQAGGSLRLSCAASGYIFEKYAMGWYRHAPGKERELVAAITVTGASTYYADSVKGRFTSSRDNAKNTVYLQMNSLKPEDTAVYYGAAKTLSVGYVDPDYGRDYWGQGTQLTVSS: low polyreactivity
QVQLVESGGGLVQAGGSLRLSCAASGFIISYYAMGWYRQAPGKERELVATINFSGAGTSYADSVKGRFTISRDNAKNTVYLQMNSLKPEDTAVYYCAARTNSPRGYGSDYWGQGTQVTVSS: high polyreactivity
QVHLVESGGGLVQAGGSLRLSCAASGFTSQYYAMGWYRQAPGKERELVAAITLRDGSTYYADSVKGRFTISRDNAKNTVYLQMNSLKPEDTAVYYCNTDATSDPYGFGYWGQGTQVTVSS: low polyreactivity

Req: // returns reported polyreactivity (PSR sort gate) for input QVQLVESGGGLVQAGGSLRLSCAASGFTFNSYAMGWYRQAPGKERELLAAISRIGGITYYADSVKGRFTISRDNAKNTVYLQMNSLKPEDTAVYYCNTASVYVYTGRYDYWGQGTQVTVSS
Resp: high polyreactivity

Req: Given the sequence QVQLVESGGGLGQAGGSLRLSCAASGSIFRGYAMGWYRQAPGKERELVAAISWSGGSTYYADSVKGRFTISRDNAKNTVYLQMNSLKPEDTAVYYCAADRDVFGYWYYYWGQGTQVTVSS , what is its reported polyreactivity (PSR sort gate)?
Resp: high polyreactivity

Req: Entry QVQLVESGGGLVQAGGSLRLSCASSGRTFPGNAMGWYRQAPGKERELVAAISWSGTRTYYADSVKGRFTISRDNAKNTVYLQMNSLKPEDTAVYYCNVVVKGAWDYYPYAYWGQGTQVTVSA has what polyreactivity (PSR sort gate)?
Resp: high polyreactivity

Req: Entry QVQLVESGGGLVQAGGSLRLSCAASGSIFNYYVMGWYRQAPGKERELVAGIRWNGGSTYYADSVKGRFTISRDNAKNTVYLQMNSLKPEDTAVYYFAAQAWWGYYSRGPMDYWGQGTQVTVSS has what polyreactivity (PSR sort gate)?
Resp: low polyreactivity

Req: Quick check: polyreactivity (PSR sort gate) of QVQLVESGGGLVQAGGSLRLSCAASGRTLYGNVMGWYRQAPGKERELVAAISRRGGSTSYADSVKGRFTISRDNAKNTVYLQMNSLKPEDTAVYYCAAGRQRYAFKYYYWGQGTQVTVSS ?
Resp: high polyreactivity

Req: Can you look up the measured polyreactivity (PSR sort gate) of QVQLVESGRALVQAGGSLRLSCAASGFTFWTNTMGWYIQAPGKERELVAAITSTGGTTYYADSVKGRFTISRDNAKNTVYLQMNSLKAEDTAVYYCAAELGGYVASYYYPGYDYWGQGTQVTVSS for me?
Resp: low polyreactivity

###

Assay remarks: yeast display, Sf9 membrane polyspecificity reagent, FACS + sequencing; frameworks hold sequencing errors
Reported property: polyreactivity (PSR sort gate)

Examples with their reported polyreactivity (PSR sort gate) follow.
QVQLVESGGGLVQAGGSLRLSCAASGIILYGYDMGWYRQAPGKERELVAAISSSGGSTYYADSVKGRFTISRDNAKNTVYLQMNSLKPEDTAVYYCAASKRYYGQLLTGGYYGYYYCGQGTQVTVSS: high polyreactivity
QVQLVESGGGLVQAGGSLRLSCAASGITFVWNAMGWYRQAPGKVREFVAGITYRSGRTYYADSVKGRFTISRDNAKNTVYLQMNSLKPEETAGYYCATTPRYTTYNYWGQGTQVTVSS: high polyreactivity
QVQLVESGGGLVQAGGSLRLSCAASGFIFRRYAMGWYRQAPGKERELVAAIRWDDGNTYYADSVKGRFTISRDNAKNTVYLQMNSLKPEDTAVYYCNADKWSSTDDWLYDYWGQGTQVTVSS: low polyreactivity
QVQLEESGGGLVQAGGSLRLSCAASGNTFYKYTMGWYRQAPGKERELLAAITWSGGSTYYADSVKGRFTISRDNAKNTVYLQMNSLKPEDTAVYYCNADDYQYKTWYHLDYWGQGTQVTVSS: low polyreactivity
QVQLVESGGGLVQAGGSLRLSCAASGFTFRKNAMGWYRQAPGKERELVAAINSSGGSTYYADSVKGRFTISRDNAKNTVYLQMKSLKQEDTAVYSCNAVGRSLARPRGDYWGQGTQVTVSS: high polyreactivity

Req: What does the data say about its polyreactivity (PSR sort gate)? Entry: QDQLVESGGGLVQAGGSLRLSCAASGSIFAYYVMGWYRQAPGKERELVAAISKSGGSTYYADSVQGRFTISRDNAKNTVYVQRNSLKPEDPAVYYCAAPQRYPRFYYWGQGTQVTVSS
Resp: high polyreactivity

Req: Data request, read-out polyreactivity (PSR sort gate), for QVQLVESGGGLVQAGGSLRLSCAASGSTFPVNAMGWYRQAPGKERELVARIRGSGGSTYYADSVKGRFTISRDNAKNTVYLQMKSLKPEDTAVYYCAARYIGYSSYKYDYWGQGTQVTVSS
Resp: high polyreactivity

###

Assay remarks: yeast display, Sf9 membrane polyspecificity reagent, FACS + sequencing; frameworks hold sequencing errors
Reported property: polyreactivity (PSR sort gate)

QVQLVESGGGLVQAGGSVRLSCAASGLIFGGYTMGWYRQAPGKDRELVAAIDSADSTYYADSVKGRFTISRDNAKNTVYLQMNSLKPEDTAVYYCATYWYYSGPAYSLRETGGVNYWGQGTQVTVSS: low polyreactivity
QVQLVESGGGLVQAGGSLRLSCAASGSTFAYYAMGWYRQAPGKERELVAGISGSGGSTYYADSVKGRFTISRDNAKNTVYLQLNSLKPEDTAVYYCAVVQRSKRTYPWYDYWGQGTQVTVSS: low polyreactivity

###

Assay remarks: yeast display, Sf9 membrane polyspecificity reagent, FACS + sequencing; frameworks hold sequencing errors
Reported property: polyreactivity (PSR sort gate)

These solved cases illustrate the format of a correct answer.
QVQLVESGGGLVQAGGSLRLSCAASGITFGYYAMGWYRQAHGKERELVAAITYSGGSTYYADSVKGRFTISRDNAKNTVYLQMNSIKPEDTAVYYCAADDGYTYYWAGYDSWGQGTQVSVSS: low polyreactivity
QVQLVESGGGLVQAGGSLRLSCAASGITFPDYAMGWYRQAPGKERELVAAISRGVNTYYADSVKGRFTISRDNAKNTVYLQMNSLKPEDTAVYYCNRRGSSGYDYWGQGSQVTVSS: low polyreactivity
QVQLVESGGGLFQAGGSLRLSCAASGRTFRYYVMGWYRQAPGKERELVAAISKSGASTYYADSVKGRFTISRDNAKYTVYSQMNSLKPEDTAVYYCAAGGVYSIYRTSRVGYDYWGQGTQVTVSS: high polyreactivity
QVQLVESGGGLVQAGGSLRLSCAASGIFWANGMGWYRQAPGKEREWVAAITSGGSTNYADSVKGRFTISRDNAKNTVYLQMNSLKPEDTAVYYCNKPWYSYRYGGVGYGYWGQGTQVTVSS: low polyreactivity
QVQLVESGGGLVQAGGSLRLSCAASGSIFYVYAMGWYRQAPGKERELVAAITSSGTTNYADSVKGRFTISRDNAKNTVYLQMNSLKPEDTAVYYCAADFYYYKKQYDYWGQGTQVTVSS: low polyreactivity

Req: May I ask what polyreactivity (PSR sort gate) has been recorded for QVQLVESGGGLVQAGGSLRLSCAASGSIFQWYAMGWYRQAPGKERELVAAITISGTRTYYADSVKGRFTISRDNAKYTVYLQMNSLKPEDTAVYYCAATEGGRFRRIADASMYYWGQGTQVTVSS ?
Resp: high polyreactivity

Req: Which polyreactivity (PSR sort gate) reading was recorded for the sequence QVQLEESGGGLVQAGGSLRLSCAASGNTSPVNAMGWYRQAPGKERELVAAITQSGGSTYYADSLKGRFTISRDNAKITVYFQMNSLKPQDTAVYYCAADVLGPQYWWYDYWGQGTQVTVSS ?
Resp: low polyreactivity

Req: Recorded polyreactivity (PSR sort gate) for QVQLVESGGGSVQAGGSLRLSCAASGFIFDGYTMGWYRQAPGKERELVAAISRSGGRTYYADSVKGRFTISRDNAKHTVYLQLNSLKPEDTAVYYCAVRYRQYSQTVASDYGYWGQGTQVTVSS , please?
Resp: high polyreactivity

Req: For QVQLVESGGGLLQAGGSLRLSCAASGSTFRGNALGWYRQAPGKVRELVAAINSSGGRTYYADSVKGRFTISRDNAKNTVYLQMNSLKPEDTAVNYCAARGRRTGDYDYWGQGTQVTVSS , what is its reported polyreactivity (PSR sort gate)?
Resp: high polyreactivity

Req: What measured polyreactivity (PSR sort gate) goes with QVQLVESGGGLVQAGGSLRLTCAASGRTFRIYAMGWYRQAPGKERELVAAIRWSGGTTYYADSVKGRFTISRDNAKNTVYFQMNSLKPEDTAVYYCAADSTNRYDYWGQGTQVTVSS ?
Resp: high polyreactivity

Req: Which value of polyreactivity (PSR sort gate) has been reported for QVQLVESGGGLVQAGGSLRLSCAASGNIFPRYAMGLYRQAPGKERELVAAITWRTSSTYYADSVKGRFTISRDNAKNTVYLQMNSLKPEDTAVYFCAKTSSRIAGEYWGQGTQVTVSS in the records?
Resp: low polyreactivity

Req: I would be grateful if you could share the reported polyreactivity (PSR sort gate) for QVQHVESGGGLVQEGGILRLSCAASGFTYRTYAMGWSRQAPGQESELVADISGSGGSTYYADSVKGRFTISRDNAKNTVYLQMNSQKPEDTAVFYCAADDASWSNLGYEYWGQGTQVTVSS .
Resp: high polyreactivity

Req: So what's the measured polyreactivity (PSR sort gate) for this one? QVQLVESGGGLVQAGGRLRLSCAASGSTFKAYAMGWYRQAPGKERELVAAISSGGSRTYYADSVKGRFTISRDNAKITVYLQMHRLKPEDIEVYYCAARKADTVFKFEYWGQGTLVTVSS
Resp: high polyreactivity

Req: Consider the sequence QVQLVESGGGLVQAGGSLRLSCAASGYTFSGYAMGWYRQAPGKERELVAAITSSGGTTYYADSVKGRFTISRDNAKNTVYLQMNSLKPEDTAVYYCNAYYSHYGDTEDYYWGQGTQVTVSS and give its measured polyreactivity (PSR sort gate).
Resp: high polyreactivity

Req: Which measured polyreactivity (PSR sort gate) value corresponds to QVQLVESGGGLVQAGGSLRLSCAASGFTFSYYAMGGYRQAPGKERELVAGIDYSGGSTYYADSVKGRFTISRDNAKNTVYLQMNSQKPEDTAVFYCNAVYARKYYYSHGYDYWGQGTQVTVSS ?
Resp: high polyreactivity
